# Test system: human P2X4 (Homo sapiens, UniProt Q99571)
# Sequence (Q99571 1-388): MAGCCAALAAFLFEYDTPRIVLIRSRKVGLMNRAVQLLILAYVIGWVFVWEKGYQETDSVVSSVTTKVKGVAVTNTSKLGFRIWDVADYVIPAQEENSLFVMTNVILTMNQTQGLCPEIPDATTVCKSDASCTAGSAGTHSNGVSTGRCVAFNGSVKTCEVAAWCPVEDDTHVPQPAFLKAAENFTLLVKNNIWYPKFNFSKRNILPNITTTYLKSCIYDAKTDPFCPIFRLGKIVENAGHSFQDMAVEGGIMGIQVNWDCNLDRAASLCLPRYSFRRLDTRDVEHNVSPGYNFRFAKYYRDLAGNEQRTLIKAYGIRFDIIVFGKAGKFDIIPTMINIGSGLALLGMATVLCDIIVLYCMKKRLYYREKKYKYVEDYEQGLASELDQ
# Assay comment: Human P2X4 HEK Cell FLIPR Assay
# Conditions: HEK293 cells, agonist Bz-ATP at EC80; individual values listed where some fall outside detection range
Grouping key: IC50. Bins: bin 0: < 90 nM; bin 1: ≥ 90 nM and < 200 nM; bin 2: ≥ 200 nM

Category lookup for the compound N#Cc1cnn(-c2ccc(NC(=O)Cc3c(F)cc(F)cc3Cl)cc2S(N)(=O)=O)c1 [Example 217]
bin 0

Would you mind sorting NS(=O)(=O)c1cc(NC(=O)Cc2ccccc2Cl)ccc1-c1cnn2cccnc12 [Example 365] into the appropriate category?
bin 1

Category lookup for the compound Cc1ccc(CC(=O)Nc2ccc(-n3cc(C(F)(F)F)nn3)c(S(N)(=O)=O)c2)cc1 [Example 409]
bin 2

Exercise: read the entry Cn1nc(C(F)(F)F)cc1-c1ccc(NC(=O)Cc2ccccc2Cl)cc1S(N)(=O)=O [Example 353] and state which class it falls under.
bin 0

Band assignment needed for Cc1cccc(CC(=O)Nc2ccc(-n3cc(F)cn3)c(S(N)(=O)=O)c2)c1 [Example 151] please.
bin 0

Assign a bin to Cc1cc(-c2ccc(NC(=O)Cc3ccccc3Cl)cc2S(N)(=O)=O)n(C)n1 [Example 351]
bin 0

Sort N#Cc1cnn(-c2ccc(NC(=O)Cc3ccc(C(F)F)cc3)cc2S(N)(=O)=O)c1 [Example 219] into one of the categories.
bin 2

For this compound, which bin applies? CN(C)c1ncn(-c2ccc(NC(=O)Cc3ccccc3Cl)cc2S(N)(=O)=O)n1 [Example 34]
bin 2

Could you place NS(=O)(=O)c1cc(NC(=O)Cc2ccccc2F)ccc1-n1cnc(Cl)n1 [Example 246] in its proper category? Many thanks.
bin 2

For this compound, which bin applies? N#Cc1cnn(-c2ccc(NC(=O)Cc3ccccc3C(F)(F)F)cc2S(N)(=O)=O)c1 [Example 184]
bin 0

Consider NS(=O)(=O)c1cc(NC(=O)Cc2cccc(F)c2Cl)ccc1-c1cnn(C2CC2)c1 [Example 337] . To which IC50 class does it belong?
bin 0

# classify by IC50 band: NS(=O)(=O)c1cc(NC(=O)Cc2ccccc2F)ccc1-n1cc(F)cn1 [Example 48]
bin 2

Class (by measured IC50) for N#Cc1cnn(-c2ccc(NC(=O)C(O)c3ccccc3Cl)cc2S(N)(=O)=O)c1 (stereo not drawn) [Example 558]
bin 2

State the class of the compound shown: NS(=O)(=O)c1cc(NC(=O)Cc2ccccc2Cl)ccc1-c1cnn(CC(F)F)c1 [Example 303]
bin 1

Textbook exercise: identify the category of the compound given here, NS(=O)(=O)c1cc(NC(=O)Cc2ccccc2F)ccc1-n1nc2cc(F)cc(F)c2n1 [Example 479] , according to its measured value.
bin 1

Lab note: sort NS(=O)(=O)c1cc(NC(=O)Cc2ccccc2Cl)ccc1-c1cnn(C2CCC2)c1 [Example 280] into the matching IC50 band.
bin 0

Looking at NS(=O)(=O)c1cc(NC(=O)Cc2c(F)cccc2Cl)ccc1-c1cnn(C2CC2)c1 [Example 333] , which class would you pick?
bin 0

Where would CC(C(=O)Nc1ccc(-n2cc(Cl)cn2)c(S(N)(=O)=O)c1)c1c(F)cccc1F (stereo not drawn) [Example 106] land among the classes by reported IC50?
bin 2

Which category fits this record: N#Cc1cnn(-c2ccc(NC(=O)Cc3ccccc3F)cc2S(N)(=O)=O)c1 [Example 52]
bin 1

// return the class label for N#Cc1cnn(-c2ccc(NC(=O)Cc3ccccc3O)cc2S(N)(=O)=O)c1 [Example 193]
bin 2

Which of the defined bands does the recorded IC50 of COc1cnn(-c2ccc(NC(=O)Cc3ccccc3Cl)cc2S(N)(=O)=O)c1 [Example 31] sit within?
bin 1

Which bin, given its IC50, does COc1cncc(-c2ccc(NC(=O)Cc3ccccc3Cl)cc2S(N)(=O)=O)c1 [Example 341] occupy?
bin 0

Band for the recorded IC50 of NS(=O)(=O)c1cc(NC(=O)Cc2ccccc2Cl)ccc1-n1cc(NC(=O)C2CC2)cn1 [Example 400] ?
bin 0

Returns: class label. Input: NS(=O)(=O)c1cc(NC(=O)Cc2cccc(C(F)(F)F)c2Cl)c(C(F)(F)F)cc1-n1cc(C(F)(F)F)cn1 [Example 533]
bin 2

Sort into band: N#Cc1cnn(-c2ccc(NC(=O)Cc3ccc(Cl)cc3)cc2S(N)(=O)=O)c1 [Example 181]
bin 1

Hey, which category is NS(=O)(=O)c1cc(NC(=O)Cc2ccccc2Cl)ccc1-n1ccc(C(F)F)n1 [Example 12] in, do you know?
bin 2

# bin label for NS(=O)(=O)c1cc(NC(=O)Cc2c(Cl)cccc2Cl)ccc1-n1cc(C(F)(F)F)cn1 [Example 116]
bin 1

Band of NS(=O)(=O)c1cc(NC(=O)Cc2cc(F)c(F)cc2Cl)ccc1-n1cc(C(F)(F)F)cn1 [Example 130] ?
bin 2

Pick a category. Item: CC(C(=O)Nc1ccc(-n2cc(F)cn2)c(S(N)(=O)=O)c1)c1c(F)cccc1F (stereo not drawn) [Example 171]
bin 2

Class label required: NS(=O)(=O)c1cc(NC(=O)Cc2ccc(Cl)cc2Cl)ccc1-c1cncc(C(F)(F)F)c1 [Example 448]
bin 2

For this compound, which bin applies? Cc1ccc(Cl)c(CC(=O)Nc2ccc(-n3cc(F)cn3)c(S(N)(=O)=O)c2)c1 [Example 165]
bin 0

---

Answer each item with its documented Emax.
# Test system: human P2X4 (Homo sapiens)
# Sequence (Q99571 1-388): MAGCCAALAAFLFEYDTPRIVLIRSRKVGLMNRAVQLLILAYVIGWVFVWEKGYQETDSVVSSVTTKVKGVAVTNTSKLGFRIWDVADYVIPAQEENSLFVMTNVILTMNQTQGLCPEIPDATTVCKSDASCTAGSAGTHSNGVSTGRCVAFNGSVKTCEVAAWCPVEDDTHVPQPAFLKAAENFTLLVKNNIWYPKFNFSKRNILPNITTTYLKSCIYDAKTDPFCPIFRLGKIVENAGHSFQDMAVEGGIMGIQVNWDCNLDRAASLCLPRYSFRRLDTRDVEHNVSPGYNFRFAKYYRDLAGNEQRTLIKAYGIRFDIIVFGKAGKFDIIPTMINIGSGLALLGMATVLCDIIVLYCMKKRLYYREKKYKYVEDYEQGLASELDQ
# Assay comment: Human P2X4 HEK Cell FLIPR Assay
# Assay type: cell-based
# Conditions: HEK293, HEK293 cells, agonist Bz-ATP at EC80; percentage of maximal inhibition; read-out: Human P2X4 HEK Cells (FLIPR Assay) avg Efficacy [%]
# Protocol: HEK293 cells stably expressing human P2X4 were plated in poly-D-lysine-coated 384-well plates at a seeding density of 30000 cells/well and incubated overnight. P2X4 function was assessed by measuring intracellular calcium changes using the calcium-chelating dye Fluo8-AM (Molecular Devices) on a fluorescent imaging plate reader (FLEX/FLIPR station; Molecular Devices). […] The EC80 value of Bz-ATP was determined each assay day prior to compound profiling. […]
Number plus unit, in that order.

Give reported Emax value for NS(=O)(=O)c1cc(NC(=O)Cc2cc(C(F)(F)F)ccc2Cl)c(C(F)(F)F)cc1-n1cc(F)cn1
95%

Give the measured Emax for NS(=O)(=O)c1cc(NC(=O)Cc2ccccc2Cl)ccc1-n1cc(CNCC(F)F)cn1
100%

# return recorded Emax for input N#Cc1cnn(-c2ccc(NC(=O)Cc3cc(Cl)ccc3Cl)cc2S(N)(=O)=O)c1
94%

Name the recorded Emax of the item NS(=O)(=O)c1cc(NC(=O)Cc2ccc(F)cc2F)ccc1-c1cncc(C(F)(F)F)c1 in your answer.
72%

Give the value of Emax reported for the following: Cc1cc(-c2ccc(NC(=O)Cc3ccccc3Cl)cc2S(N)(=O)=O)cnc1Cl
104%

Tell us which Emax value is on record for N#Cc1ccc(Cl)c(CC(=O)Nc2ccc(-n3cc(C(F)(F)F)cn3)c(S(N)(=O)=O)c2)c1
87%

Hello, please tell me recorded Emax for this one: NS(=O)(=O)c1cc(NC(=O)Cc2ccccc2Cl)ccc1-c1nccs1
65%

Give the measured Emax for NS(=O)(=O)c1cc(NC(=O)Cc2ccc(C(F)(F)F)cc2Cl)ccc1-n1ncc(C(F)(F)F)n1
20%
